The values you see were collected from patent US10745460B2.

- targetOfAssay: HLA-A*02:01 (Homo sapiens, UniProt P04439, D140Y/D185E/D98H/E176V/E277Q/G131W/G231S/I119V/I121R/I166T/I218V/L300P/L318F/N151K/N90K/P208A/P217A/Q86G/Q94H/R138H/R169H/T345S)
- experimentDescription: MHC binding assay: UV-ligand exchange with β2m ELISA (peptide exchange yield)
- statedConditions: binding to HLA-A*02:01 evaluated by peptide exchange yield (UV-ligand exchange, β2m ELISA)
measuredQuantity: Peptide exchange

The cases that follow already have their Peptide exchange on record.
272 (FVMEGEPPKL; listed as Homo sapiens) [compound 272] | ++ (≥20% = ++)
77 (ALYGNVQQV; listed as Homo sapiens) [compound 77] | +++ (≥50 = +++)
270 (TLLTFFHEL; listed as Homo sapiens) [compound 270] | +++ (≥50 = +++)
108 (FIANLPPELKA; listed as Homo sapiens) [compound 108] | +++ (≥50 = +++)
177 (ALINVLNAL; listed as Homo sapiens) [compound 177] | +++ (≥50 = +++)

Need Peptide exchange for each of these substances.
1. 253 (KLLAVIHEL; listed as Homo sapiens) [compound 253]
2. 66 (AMFPDTIPRV; listed as Homo sapiens) [compound 66]
3. 227 (SEMEELPSV; listed as Homo sapiens) [compound 227]
4. 184 (ALDSTIAHL; listed as Homo sapiens) [compound 184]
5. 74 (GLAFLPASV; listed as Homo sapiens) [compound 74]
6. 257 (KLIDHQGLYL; listed as Homo sapiens) [compound 257]

["+++ (≥50 = +++)", "++ (≥20% = ++)", "+ (≥10% = +)", "++ (≥20% = ++)", "++ (≥20% = ++)", "+++ (≥50 = +++)"]

----------
- targetOfAssay: HLA-A*02:01 (Homo sapiens, UniProt P04439, D140Y/D185E/D98H/E176V/E277Q/G131W/G231S/I119V/I121R/I166T/I218V/L300P/L318F/N151K/N90K/P208A/P217A/Q86G/Q94H/R138H/R169H/T345S)
- experimentDescription: MHC binding assay: UV-ligand exchange with β2m ELISA (peptide exchange yield)
- statedConditions: binding to HLA-A*02:01 evaluated by peptide exchange yield (UV-ligand exchange, β2m ELISA)
- Excerpt: Candidate peptides for T cell based therapies according to the present invention were further tested for their MHC binding capacity (affinity). The individual peptide-MHC complexes were produced by UV-ligand exchange, where a UV-sensitive peptide is cleaved upon UV-irradiation, and exchanged with the peptide of interest as analyzed. Only peptide candidates that can effectively bind and stabilize the peptide-receptive MHC molecules prevent dissociation of the MHC complexes. […]
measuredQuantity: Peptide exchange

The cases that follow already have their Peptide exchange on record.
188 (VLGEEQEGV; listed as Homo sapiens) [compound 188] | ++ (≥20% = ++)
38 (VLQQESNFL; listed as Homo sapiens) [compound 38] | ++ (≥20% = ++)
11 (LLDPKTIFL; listed as Homo sapiens) [compound 11] | +++ (≥50 = +++)
28 (IKVTDPQLLEL; listed as Homo sapiens) [compound 28] | ++ (≥20% = ++)

Turning to the following substance.
Returns the measured Peptide exchange for the input substance. Input: 125 (AALEVLAEV; listed as Homo sapiens) [compound 125]
+++ (≥50 = +++)

----------
- targetOfAssay: HLA-A*02:01 (Homo sapiens, UniProt P04439, D140Y/D185E/D98H/E176V/E277Q/G131W/G231S/I119V/I121R/I166T/I218V/L300P/L318F/N151K/N90K/P208A/P217A/Q86G/Q94H/R138H/R169H/T345S)
- experimentDescription: MHC binding assay: UV-ligand exchange with β2m ELISA (peptide exchange yield)
- statedConditions: binding to HLA-A*02:01 evaluated by peptide exchange yield (UV-ligand exchange, β2m ELISA)
measuredQuantity: Peptide exchange

165 (SLLDYEVSI; listed as Homo sapiens) [compound 165] | +++ (≥50 = +++)
273 (SLNKQIETV; listed as Homo sapiens) [compound 273] | ++ (≥20% = ++)
94 (YLDEVAFML; listed as Homo sapiens) [compound 94] | +++ (≥50 = +++)
283 (ALSELLQQV; listed as Homo sapiens) [compound 283] | +++ (≥50 = +++)
80 (VLTGQVHEL; listed as Homo sapiens) [compound 80] | +++ (≥50 = +++)
264 (TLHDQVHLL; listed as Homo sapiens) [compound 264] | ++ (≥20% = ++)

Need Peptide exchange for each of these substances.
1. 221 (IMLNSVEEI; listed as Homo sapiens) [compound 221]
2. 114 (LLFPSDVQTL; listed as Homo sapiens) [compound 114]
3. 117 (TLLEGISRA; listed as Homo sapiens) [compound 117]
4. 29 (KMISAIPTL; listed as Homo sapiens) [compound 29]
5. 213 (ILAVDGVLSV; listed as Homo sapiens) [compound 213]
6. 57 (TLYPGRFDYV; listed as Homo sapiens) [compound 57]

1: ++ (≥20% = ++); 2: ++ (≥20% = ++); 3: ++ (≥20% = ++); 4: ++ (≥20% = ++); 5: +++ (≥50 = +++); 6: ++ (≥20% = ++)

----------
- targetOfAssay: HLA-A*02:01 (Homo sapiens, UniProt P04439, D140Y/D185E/D98H/E176V/E277Q/G131W/G231S/I119V/I121R/I166T/I218V/L300P/L318F/N151K/N90K/P208A/P217A/Q86G/Q94H/R138H/R169H/T345S)
- experimentDescription: MHC binding assay: UV-ligand exchange with β2m ELISA (peptide exchange yield)
- statedConditions: binding to HLA-A*02:01 evaluated by peptide exchange yield (UV-ligand exchange, β2m ELISA)
measuredQuantity: Peptide exchange

30 (IITEVITRL; listed as Homo sapiens) [compound 30] | +++ (≥50 = +++)
37 (QIVELIEKI; listed as Homo sapiens) [compound 37] | ++ (≥20% = ++)
256 (FLNDIFERI; listed as Homo sapiens) [compound 256] | +++ (≥50 = +++)
149 (NMADGQLHQV; listed as Homo sapiens) [compound 149] | ++ (≥20% = ++)

Turning to the following substance.
Returns the measured Peptide exchange for the input substance. Input: 47 (GLNGFNVLL; listed as Homo sapiens) [compound 47]
+++ (≥50 = +++)

----------
- targetOfAssay: HLA-A*02:01 (Homo sapiens, UniProt P04439, D140Y/D185E/D98H/E176V/E277Q/G131W/G231S/I119V/I121R/I166T/I218V/L300P/L318F/N151K/N90K/P208A/P217A/Q86G/Q94H/R138H/R169H/T345S)
- experimentDescription: MHC binding assay: UV-ligand exchange with β2m ELISA (peptide exchange yield)
- statedConditions: binding to HLA-A*02:01 evaluated by peptide exchange yield (UV-ligand exchange, β2m ELISA)
measuredQuantity: Peptide exchange

The cases that follow already have their Peptide exchange on record.
247 (NLLIDDKGTIKL; listed as Homo sapiens) [compound 247] | ++ (≥20% = ++)
279 (VLMDEGAVLTL; listed as Homo sapiens) [compound 279] | ++ (≥20% = ++)
111 (AQLEGKLVSI; listed as Homo sapiens) [compound 111] | +++ (≥50 = +++)
112 (ILAQDVAQL; listed as Homo sapiens) [compound 112] | +++ (≥50 = +++)
239 (VIIKGLEEITV; listed as Homo sapiens) [compound 239] | +++ (≥50 = +++)

Need Peptide exchange for each of these substances.
1. 262 (LLLEAVWHL; listed as Homo sapiens) [compound 262]
2. 246 (ALAGIVTNV; listed as Homo sapiens) [compound 246]
3. 278 (VLEDKVLSV; listed as Homo sapiens) [compound 278]

1. +++ (≥50 = +++)
2. +++ (≥50 = +++)
3. +++ (≥50 = +++)

Need Peptide exchange for each of these substances.
1. 5 (GLVDIMVHL; listed as Homo sapiens) [compound 5]
2. 90 (AILNVDEKNQV; listed as Homo sapiens) [compound 90]

["+++ (≥50 = +++)", "++ (≥20% = ++)"]

----------
- targetOfAssay: HLA-A*02:01 (Homo sapiens, UniProt P04439, D140Y/D185E/D98H/E176V/E277Q/G131W/G231S/I119V/I121R/I166T/I218V/L300P/L318F/N151K/N90K/P208A/P217A/Q86G/Q94H/R138H/R169H/T345S)
- experimentDescription: MHC binding assay: UV-ligand exchange with β2m ELISA (peptide exchange yield)
- statedConditions: binding to HLA-A*02:01 evaluated by peptide exchange yield (UV-ligand exchange, β2m ELISA)
measuredQuantity: Peptide exchange

The cases that follow already have their Peptide exchange on record.
123 (QTAPEEAFIKL; listed as Homo sapiens) [compound 123] | + (≥10% = +)
252 (SLMEKNQSL; listed as Homo sapiens) [compound 252] | ++ (≥20% = ++)
87 (KLLSLLEEA; listed as Homo sapiens) [compound 87] | +++ (≥50 = +++)
225 (FLPQPVPLSV; listed as Homo sapiens) [compound 225] | +++ (≥50 = +++)
76 (FTAEFLEKV; listed as Homo sapiens) [compound 76] | +++ (≥50 = +++)

Need Peptide exchange for each of these substances.
1. 226 (SLAGNLQEL; listed as Homo sapiens) [compound 226]
2. 137 (KLIYKDLVSV; listed as Homo sapiens) [compound 137]
3. 39 (YLEDGFAYV; listed as Homo sapiens) [compound 39]
4. 122 (SIIDTELKV; listed as Homo sapiens) [compound 122]
5. 131 (SLYPHFTLL; listed as Homo sapiens) [compound 131]
6. 88 (LLLPLELSLA; listed as Homo sapiens) [compound 88]

["+++ (≥50 = +++)", "++ (≥20% = ++)", "+++ (≥50 = +++)", "+++ (≥50 = +++)", "+++ (≥50 = +++)", "+++ (≥50 = +++)"]

Need Peptide exchange for each of these substances.
1. 231 (LLDDIFIRL; listed as Homo sapiens) [compound 231]
2. 44 (AVFNLVHVV; listed as Homo sapiens) [compound 44]
3. 133 (FLDGRPLTL; listed as Homo sapiens) [compound 133]
4. 174 (ALYSGDLHAA; listed as Homo sapiens) [compound 174]
5. 259 (GPGIFPPPPPQP; listed as Homo sapiens) [compound 259]
6. 10 (QLIEKNWLL; listed as Homo sapiens) [compound 10]
7. 265 (FLLDKPQDLSI; listed as Homo sapiens) [compound 265]

1: +++ (≥50 = +++); 2: +++ (≥50 = +++); 3: ++ (≥20% = ++); 4: ++ (≥20% = ++); 5: + (≥10% = +); 6: +++ (≥50 = +++); 7: +++ (≥50 = +++)

Need Peptide exchange for each of these substances.
1. 36 (TVLQELINV; listed as Homo sapiens) [compound 36]
2. 157 (ILQDGQFLV; listed as Homo sapiens) [compound 157]
3. 13 (RLHDENILL; listed as Homo sapiens) [compound 13]
4. 101 (SLLEVNEASSV; listed as Homo sapiens) [compound 101]
5. 274 (TLYNPERTITV; listed as Homo sapiens) [compound 274]

1. +++ (≥50 = +++)
2. ++ (≥20% = ++)
3. +++ (≥50 = +++)
4. +++ (≥50 = +++)
5. +++ (≥50 = +++)
